ASSAY_TARGET: T1, recombinant human GPA ectodomain (human, UniProt P02724 20-91)
T1 construct: also called recombinant hGPA ECD; recGPA
T1 sequence: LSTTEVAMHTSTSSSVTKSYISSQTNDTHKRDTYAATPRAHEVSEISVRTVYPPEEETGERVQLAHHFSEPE
ASSAY_REMARKS: ELISA, rec hGPA ectodomain
METRIC_NAME: binding by ELISA relative to parental
Provide a numeric answer; units are not to be included.

TPP-5353 (Fab, V domains shown, also called VL: (R90L)) VH: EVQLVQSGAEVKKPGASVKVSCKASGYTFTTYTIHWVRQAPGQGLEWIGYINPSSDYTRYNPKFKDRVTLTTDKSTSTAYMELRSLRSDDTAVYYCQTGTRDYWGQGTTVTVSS VL: DIQLTQSPSFLSASVGDRVTITCSAASSVSYIYWFQQKPGKAPKLLIYSTSTLPSGVPSRFSGSGSGTEYTLTISSLQPEDFATYYCHQLNSFPFTFGQGTKLEIKR; 0.04
TPP-5316 (Fab, V domains shown, also called VH: (E1Q)) VH: QVQLVQSGAEVKKPGASVKVSCKASGYTFTTYTIHWVRQAPGQGLEWIGYINPSSDYTRYNPKFKDRVTLTTDKSTSTAYMELRSLRSDDTAVYYCQTGTRDYWGQGTTVTVSS VL: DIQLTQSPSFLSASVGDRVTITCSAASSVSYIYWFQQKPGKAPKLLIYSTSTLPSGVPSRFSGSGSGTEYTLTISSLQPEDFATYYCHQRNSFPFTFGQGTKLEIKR; 1.29
TPP-5357 (Fab, V domains shown, also called VL: (S24R)#) VH: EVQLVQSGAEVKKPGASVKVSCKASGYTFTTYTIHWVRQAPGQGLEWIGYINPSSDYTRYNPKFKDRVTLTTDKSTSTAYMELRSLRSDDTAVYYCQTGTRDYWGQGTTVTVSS VL: DIQLTQSPSFLSASVGDRVTITCRAASSVSSYIYWFQQKPGKAPKLLIYSTSTLPSGVPSRFSGSGSGTEYTLTISSLQPEDFATYYCHQRNSFPFTFGQGTKLEIKR; 0.23
TPP-5350 (Fab, V domains shown, also called VL: (P54Q)) VH: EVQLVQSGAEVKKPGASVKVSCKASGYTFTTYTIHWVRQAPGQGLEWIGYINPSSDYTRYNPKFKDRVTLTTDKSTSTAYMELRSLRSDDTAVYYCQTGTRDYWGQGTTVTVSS VL: DIQLTQSPSFLSASVGDRVTITCSAASSVSYIYWFQQKPGKAPKLLIYSTSTLQSGVPSRFSGSGSGTEYTLTISSLQPEDFATYYCHQRNSFPFTFGQGTKLEIKR; 1.7

Let us move to another entry and its binding by ELISA relative to parental.
Return reported binding by ELISA relative to parental; argument: TPP-5345 (Fab, V domains shown, also called VL: (I32L)) VH: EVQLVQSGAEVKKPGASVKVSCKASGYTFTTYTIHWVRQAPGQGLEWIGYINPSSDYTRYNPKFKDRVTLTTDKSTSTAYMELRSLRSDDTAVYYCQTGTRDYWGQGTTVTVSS VL: DIQLTQSPSFLSASVGDRVTITCSAASSVSYLYWFQQKPGKAPKLLIYSTSTLPSGVPSRFSGSGSGTEYTLTISSLQPEDFATYYCHQRNSFPFTFGQGTKLEIKR
0.48
